assay: Drug uptake in rat 9L tumor implanted in Fischer 344 rat after 60 mins relative to control; type: ADME, Neoplasm; conditions: read-out: Drug uptake

STRUCTURE NOTATION: N[C@@]1(C(=O)O)CC[C@@H]1[18F]
tissue uptake at 1 h: 0.65 %ID/g

====

assay: Drug uptake in rat 9L tumor implanted in Fischer 344 rat after 15 mins relative to control; type: ADME, Neoplasm; settings: read-out: Drug uptake

STRUCTURE NOTATION: N[C@@]1(C(=O)O)CC[C@@H]1[18F]
tissue uptake at 0.25 h (%ID/g): 0.51

====

assay: Drug uptake in rat 9L tumor implanted in Fischer 344 rat after 120 mins relative to control; assay type: ADME, Neoplasm; details: read-out: Drug uptake

STRUCTURE NOTATION: N[C@@]1(C(=O)O)CC[C@@H]1[18F]
tissue uptake at 2 h [%ID/g]: 0.6
